System: SK-MEL-2 melanoma
Assay: NCI tumour cell line growth inhibition, 48 h
// values below are reported TGI
Assay Endpoint: TGI

Molecule | Observed Result
C=C(C)C12CC3CC/C(=N/O)C(C1)C3(N1CCOCC1)C/C2=N/O (centres undefined) | > 100 µM
C[C@H]1C(=O)CC[C@]2(C)CCC(C(C)(C)O)CC12O (some centres undefined) | > 100 µM
O=c1ccn(C2OC(CN(O)CCC3C(CO)OC(n4ccc(=O)[nH]c4=O)C3O)C(O)C2O)c(=O)[nH]1 (centres undefined) | > 100 µM
CC1=C(C(=O)Nc2ccc([N+](=O)[O-])cc2)C(c2ccccc2F)C(C(=O)Nc2ccc([N+](=O)[O-])cc2)=C(C)N1 | 24.7 µM
CC1(C)O[C@@H](CBr)C[C@H](C[C@H]2C[C@@H](O)C[C@@H](CCOCc3ccccc3)O2)O1 | 32 µM
O=C1c2ccccc2-c2c1c(-c1cccc(Br)c1)nc1ccc3ccccc3c21 | > 100 µM
Cn1c(=O)c(Oc2ccc(F)cc2F)cc2cnc(NCCS(C)(=O)=O)nc21 | > 25 µM
COc1ccc2nc(NC(=O)C(=O)C(C#N)c3ccc(Cl)c(Cl)c3)sc2c1 (centres undefined) | > 100 µM
Cc1ccc(S(=O)(=O)c2c(N)n(CCN(C)C)c3nc4ccccc4nc23)cc1 | > 100 µM
